experiment: Inhibition of AchE in fly head nerve cells using acetylthiocholine iodide as substrate preincubated for 20 mins followed by substrate addition and measured every 30s for 1 hr by DTNB reagent based Ellman's spectrophotometric method; conditions: Diptera, Nerve cell
The reader will find reported IC50 values listed item by item below.
Could you give me the number in µM? Just the number is fine.

smiles_string=C=CCCN1C[C@@H]2C[C@@H](CN3C(=O)CCC=C23)C1=O measure=IC50 measurement=20
smiles_string=CC(=O)O[C@H]1CCN2C[C@@H]3C[C@@H](CN4C(=O)[C@H](O)CC[C@H]34)[C@@H]2C1 measure=IC50 measurement=9.77
smiles_string=CC(=O)N1CCCC[C@H]1[C@@]12C[C@@H](C[C@H]3CCCN[C@@H]31)[C@H]1CCCCN1C2 measure=IC50 measurement=5.65

Attention now turns to another entry.
[Q] Bench note: what IC50 did `CCOP(=S)(OCC)Oc1nc(Cl)c(Cl)cc1Cl` show?
[A] 0.0233
